Where do the numbers come from? From ChEMBL document CHEMBL4390652.

The following molecules have recorded pIC50 on Cyclin-dependent kinase 5/CDK5 activator 1 (Homo sapiens, UniProt Q00535).
Sequence (Q00535 whole entry): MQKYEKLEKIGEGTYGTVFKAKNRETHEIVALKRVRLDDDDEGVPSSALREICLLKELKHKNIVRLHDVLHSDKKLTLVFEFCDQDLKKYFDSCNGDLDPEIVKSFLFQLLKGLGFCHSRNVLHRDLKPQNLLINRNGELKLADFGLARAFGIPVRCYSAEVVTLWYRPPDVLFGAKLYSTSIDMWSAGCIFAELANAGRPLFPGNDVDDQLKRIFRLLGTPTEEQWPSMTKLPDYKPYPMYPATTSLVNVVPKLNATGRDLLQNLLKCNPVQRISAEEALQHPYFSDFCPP
Sequence (Q15078 whole entry, further chain): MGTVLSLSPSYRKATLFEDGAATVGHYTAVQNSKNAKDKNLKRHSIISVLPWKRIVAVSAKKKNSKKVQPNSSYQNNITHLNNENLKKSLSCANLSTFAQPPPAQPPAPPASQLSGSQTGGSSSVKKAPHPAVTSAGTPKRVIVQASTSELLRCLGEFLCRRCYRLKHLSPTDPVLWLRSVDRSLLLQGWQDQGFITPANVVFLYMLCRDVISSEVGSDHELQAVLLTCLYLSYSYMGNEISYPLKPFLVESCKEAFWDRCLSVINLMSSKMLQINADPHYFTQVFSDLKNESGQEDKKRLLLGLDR
Notebook: values listed as pIC50 are -log10 of the concentration (mol/L).

Reference set, count: 6
molecule="CN(Cc1ccnc(NC(=O)Nc2cccc3c2C2CCCCN2C3=O)c1)Cc1cn(CCNc2c3c(nc4ccccc24)CCCC3)nn1 (racemic)" reported_value=6.51
molecule="O=C(Nc1cc(COCc2cn(CCNc3ccncc3)nn2)ccn1)Nc1cccc2c1C1CCCCN1C2=O (racemic)" reported_value=6.70
molecule="O=C(Nc1cccc(-c2cn(CCNc3c4c(nc5ccccc35)CCCC4)nn2)n1)Nc1cccc2c1C1CCCCN1C2=O (racemic)" reported_value=5.51
molecule="O=C(Nc1cc(-c2cn(CCNc3c4c(nc5ccccc35)CCCC4)nn2)ccn1)Nc1cccc2c1C1CCCCN1C2=O (racemic)" reported_value=6.10
molecule=O=C(Nc1cc(-c2cn(CCNc3c4c(nc5ccccc35)CCCC4)nn2)ccn1)Nc1cccc2c1[C@H]1CCCCN1C2=O reported_value=6.30
molecule="C#CCCc1ccnc(NC(=O)Nc2cccc3c2C2CCCCN2C3=O)c1 (racemic)" reported_value=7.15

Let's switch to this molecule now.
The molecule O=C(Nc1cc(COCc2cn(CCNc3c4c(nc5ccccc35)CCCC4)nn2)ccn1)Nc1cccc2c1C1CCCCN1C2=O (racemic) on Cyclin-dependent kinase 5/CDK5 activator 1 (Homo sapiens, UniProt Q00535): pIC50 was 6.52
